These data points were gathered from paper PMC4146477.

Test system: M. avium My 330/88
Assay summary: In vitro antimycobacterial evaluation (MIC, Sula semisynthetic medium)
Type: cell-based
Reported conditions: Mycobacterium avium, MY330/88, 336 h; 14d incubation
Would you kindly list MIC for each of these compounds?
Give bare numbers, in µM.

Take a look at these entries with their results.
FC(F)(F)c1ccc(/C=C/c2nc3ccccc3o2)cc1 = 125
COc1ccc(/C=C/c2nc3ccccc3o2)cc1 = 32
CSc1ccc(/C=C/c2nc3ccccc3o2)cc1 = 62.5
CCc1ccc(/C=C/c2nc3ccccc3o2)o1 = 250

I would be grateful if you could provide MIC for each of the following entries.
1. C(/C=C/c1nc2ccccc2o1)=C\c1ccccc1
2. C(=C\c1nc2ccccc2o1)/c1ccccc1 [Compound 1, 2-[(E)-2-Phenylethenyl]-1,3-benzoxazole]

1. 250
2. 62.5

I would be grateful if you could provide MIC for each of the following entries.
1. Clc1ccc(/C=C/c2nc3ccccc3o2)cc1
2. C(=C\c1nc2ccccc2o1)/c1ccco1
3. Cc1ccc(/C=C/c2nc3ccccc3o2)cc1
4. COc1ccc(/C=C/C=C/c2nc3ccccc3o2)cc1
5. COc1ccccc1/C=C/c1nc2ccccc2o1
6. C(=C\c1nc2ccccc2o1)/c1ccc2c(c1)CCO2

[250, 62.5, 125, 125, 62.5, 32]
